# System: HIV-1JR-FL envelope-mediated membrane fusion
# protocol details: microbe, parasite or virus in culture
# Assay type: cell-based
# cond: Human immunodeficiency virus 1, read-out: IC50 of the combination, UK-427,857 with PRO 140, 1:1 fixed molar ratio, total concentration, FIG. 15A

{"columns": ["compound", "measured target", "IC50"],
 "data": [
  ["Cc1nnc(C(C)C)n1C1CC2CCC(C1)N2CC[C@H](NC(=O)C1CCC(F)(F)CC1)c1ccccc1 (stereo partly shown) [UK-427,857]", "HIV-1JR-FL envelope-mediated membrane fusion", "2.1 nM"]
]}
